# Test system: NCI-H522
# procedure summary: relative viability (nuclei count vs DMSO), 5 days (fraction); higher = more cells survive
# condition description: first compound 0.05 µM
Entries and their measured relative viability follow.
Field format: numeric only.

Answered cases to consult:
| compound | system tested | relative viability |
| --- | --- | --- |
| COc1cc2nccc(Oc3ccc(NC(=O)Nc4cc(C)on4)c(Cl)c3)c2cc1OC [Tivozanib] + COc1cccc2cc(-c3nc([C@H]4CC[C@H](C(=O)O)CC4)n4ncnc(N)c34)[nH]c12 [OSI-027] (partner 0.5 µM) | NCI-H522 | 0.783 |
| Nc1ccn([C@@H]2O[C@H](CO)[C@@H](O)[C@@H]2O)c(=O)n1 [Cytarabine] + O=C(c1cc(Cc2n[nH]c(=O)c3ccccc23)ccc1F)N1CCN(C(=O)C2CC2)CC1 [Olaparib] (partner 8 µM) | NCI-H522 | 0.813 |

-- ask Look up and report measured relative viability for this entry: COc1cc2nccc(Oc3ccc(NC(=O)Nc4cc(C)on4)c(Cl)c3)c2cc1OC [Tivozanib] + O=C(CCCCCCC(=O)Nc1ccccc1)NO [Vorinostat] (partner 1 µM)
-- reply 0.822

----------
# Test system: NCI-H2023
# procedure summary: relative viability (nuclei count vs DMSO), 5 days (fraction); higher = more cells survive
# condition description: first compound 0.5 µM
measured endpoint: relative viability
Field format: numeric only.

| molecule | value observed |
| --- | --- |
| Nc1ccn([C@@H]2O[C@H](CO)[C@@H](O)[C@@H]2O)c(=O)n1 [Cytarabine] + CCNC(=O)c1noc(-c2cc(C(C)C)c(O)cc2O)c1-c1ccc(CN2CCOCC2)cc1 [Luminespib] (partner 0.01 µM) | 0.0897 |
| Nc1ccn([C@@H]2O[C@H](CO)[C@@H](O)[C@@H]2O)c(=O)n1 [Cytarabine] + CS(=O)(=O)N1CCN(Cc2cc3nc(-c4cccc5[nH]ncc45)nc(N4CCOCC4)c3s2)CC1 [Pictilisib] (partner 1 µM) | 0.0698 |
| COc1cc2nccc(Oc3ccc(NC(=O)Nc4cc(C)on4)c(Cl)c3)c2cc1OC [Tivozanib] + C[C@@H](Oc1cc(-c2cnn(C3CCNCC3)c2)cnc1N)c1c(Cl)ccc(F)c1Cl [Crizotinib] (partner 1 µM) | 0.546 |

Okay, next one:
-- ask Look up and report measured relative viability for this entry: COc1cc2nccc(Oc3ccc(NC(=O)Nc4cc(C)on4)c(Cl)c3)c2cc1OC [Tivozanib] + CC(=O)c1c(C)c2cnc(Nc3ccc(N4CCNCC4)cn3)nc2n(C2CCCC2)c1=O [Palbociclib] (partner 0.5 µM)
-- reply 0.451

----------
# Test system: EMC-BAC-2
# procedure summary: relative viability (nuclei count vs DMSO), 5 days (fraction); higher = more cells survive
# condition description: first compound 0.5 µM
measured endpoint: relative viability
Field format: numeric only.

Answered cases to consult:
| compound | relative viability |
| --- | --- |
| Nc1ccn([C@@H]2O[C@H](CO)[C@@H](O)[C@@H]2O)c(=O)n1 [Cytarabine] + Nc1ncn([C@H]2C[C@H](O)[C@@H](CO)O2)c(=O)n1 [Decitabine] (partner 2 µM) | 0.332 |
| COc1cc2nccc(Oc3ccc(NC(=O)Nc4cc(C)on4)c(Cl)c3)c2cc1OC [Tivozanib] + Cc1nc(NC(=O)N2CCC[C@H]2C(N)=O)sc1-c1ccnc(C(C)(C)C(F)(F)F)c1 [Alpelisib] (partner 2 µM) | 0.774 |
| COc1cc2nccc(Oc3ccc(NC(=O)Nc4cc(C)on4)c(Cl)c3)c2cc1OC [Tivozanib] + O=C(CCCCCCC(=O)Nc1ccccc1)NO [Vorinostat] (partner 1 µM) | 0.201 |
| Nc1ccn([C@@H]2O[C@H](CO)[C@@H](O)[C@@H]2O)c(=O)n1 [Cytarabine] + CCNC(=O)c1noc(-c2cc(C(C)C)c(O)cc2O)c1-c1ccc(CN2CCOCC2)cc1 [Luminespib] (partner 0.01 µM) | 0.244 |
| Nc1ccn([C@@H]2O[C@H](CO)[C@@H](O)[C@@H]2O)c(=O)n1 [Cytarabine] + CC1(C)CCC(c2ccc(Cl)cc2)=C(CN2CCN(c3ccc(C(=O)NS(=O)(=O)c4ccc(N[C@H](CCN5CCOCC5)CSc5ccccc5)c(S(=O)(=O)C(F)(F)F)c4)cc3)CC2)C1 [Navitoclax] (partner 0.5 µM) | 0.19 |

-- ask Look up and report measured relative viability for this entry: COc1cc2nccc(Oc3ccc(NC(=O)Nc4cc(C)on4)c(Cl)c3)c2cc1OC [Tivozanib] + N=C(N)NC(=N)NCCc1ccccc1 [Phenformin] (partner 250 µM)
-- reply 0.441

-- ask Look up and report measured relative viability for this entry: Nc1ccn([C@@H]2O[C@H](CO)[C@@H](O)[C@@H]2O)c(=O)n1 [Cytarabine] + O=C(CCCCCCC(=O)Nc1ccccc1)NO [Vorinostat] (partner 1 µM)
-- reply 0.182
